- Tested on: CFTR-mediated chloride transport (Homo sapiens, UniProt P13569)
- Sequence (P13569 whole entry, looked up): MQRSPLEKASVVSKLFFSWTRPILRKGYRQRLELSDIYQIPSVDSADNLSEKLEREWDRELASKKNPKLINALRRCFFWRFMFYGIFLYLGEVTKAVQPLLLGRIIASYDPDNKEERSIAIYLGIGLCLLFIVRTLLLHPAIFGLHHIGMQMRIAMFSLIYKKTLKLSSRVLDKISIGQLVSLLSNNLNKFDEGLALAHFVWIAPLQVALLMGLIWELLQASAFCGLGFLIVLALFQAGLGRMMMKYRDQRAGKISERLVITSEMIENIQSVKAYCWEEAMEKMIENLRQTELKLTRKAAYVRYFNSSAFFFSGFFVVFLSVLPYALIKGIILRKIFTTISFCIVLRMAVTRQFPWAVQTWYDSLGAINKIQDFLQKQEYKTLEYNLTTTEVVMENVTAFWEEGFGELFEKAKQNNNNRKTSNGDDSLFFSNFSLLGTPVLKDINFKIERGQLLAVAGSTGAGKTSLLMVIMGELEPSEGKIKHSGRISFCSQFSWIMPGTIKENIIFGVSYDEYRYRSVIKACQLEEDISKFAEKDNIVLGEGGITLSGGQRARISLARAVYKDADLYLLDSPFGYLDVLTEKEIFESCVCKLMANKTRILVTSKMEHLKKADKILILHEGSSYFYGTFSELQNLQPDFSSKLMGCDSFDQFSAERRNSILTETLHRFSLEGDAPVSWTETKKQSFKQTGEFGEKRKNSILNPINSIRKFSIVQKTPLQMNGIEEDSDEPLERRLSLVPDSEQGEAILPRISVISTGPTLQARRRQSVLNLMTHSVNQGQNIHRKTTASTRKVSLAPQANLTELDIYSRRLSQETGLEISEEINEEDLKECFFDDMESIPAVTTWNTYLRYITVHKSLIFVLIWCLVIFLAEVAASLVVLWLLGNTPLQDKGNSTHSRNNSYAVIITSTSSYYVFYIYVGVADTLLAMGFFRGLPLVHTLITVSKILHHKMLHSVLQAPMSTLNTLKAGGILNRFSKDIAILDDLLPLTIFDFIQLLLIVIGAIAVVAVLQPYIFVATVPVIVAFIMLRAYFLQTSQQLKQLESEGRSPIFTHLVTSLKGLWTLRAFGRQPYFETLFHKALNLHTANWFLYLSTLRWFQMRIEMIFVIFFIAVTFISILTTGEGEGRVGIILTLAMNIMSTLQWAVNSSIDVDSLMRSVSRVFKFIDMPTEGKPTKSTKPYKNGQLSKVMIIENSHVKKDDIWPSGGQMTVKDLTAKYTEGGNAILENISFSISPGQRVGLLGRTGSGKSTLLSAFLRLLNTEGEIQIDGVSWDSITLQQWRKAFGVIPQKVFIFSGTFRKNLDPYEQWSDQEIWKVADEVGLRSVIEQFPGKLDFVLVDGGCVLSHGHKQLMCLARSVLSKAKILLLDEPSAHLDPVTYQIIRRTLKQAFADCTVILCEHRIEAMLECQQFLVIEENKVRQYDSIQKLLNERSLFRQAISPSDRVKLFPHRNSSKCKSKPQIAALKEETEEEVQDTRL
- Condition parameters: enteroid cells incubated with test compound 18-24 hours; acute 10 μM forskolin and 300 nM Compound III
Catalogue of EC50 readings, one per entry.
Measured endpoint: EC50

[[record]]
compound = "Cc1cn2nc1S(=O)(=O)NC(=O)c1ccc(-n3ccc(OCCC(C4CC4)C4CC4)n3)nc1N1C[C@H](CCC2)CC1(C)C (single isomer, unassigned) [Compound 202]"
measured_endpoint = "EC50"
reported_result = "< 1000 nM"

[[record]]
compound = "Cc1nn2cc1S(=O)(=O)NC(=O)c1ccc(-n3ccc(OCCC4(C(F)(F)F)CC4)n3)nc1N1CC(CCC2)CC1(C)C (stereo not drawn) [Compound 19]"
measured_endpoint = "EC50"
reported_result = "1000 to 3000 nM"

[[record]]
compound = "CC1(C)C[C@H]2CCCNc3cccc(n3)S(=O)(=O)NC(=O)c3ccc(-n4ccc(OCC5(C(F)(F)F)CC5)n4)nc3N1C2 (single isomer, unassigned) [Compound 22]"
measured_endpoint = "EC50"
reported_result = "< 1000 nM"

[[record]]
compound = "CC1(C)CC2CN1c1nc(-n3ccc(OCCC4(C(F)(F)F)CC4)n3)ccc1C(=O)NS(=O)(=O)c1ccnn1CCO2 (stereo not drawn) [Compound 152]"
measured_endpoint = "EC50"
reported_result = "> 3000 nM"

[[record]]
compound = "Cc1ccc2nc1S(=O)(=O)NC(=O)c1ccc(-n3ccc(OCCC4(C(F)(F)F)CC4)n3)nc1N1C[C@H](CCCN2)CC1(C)C (single isomer, unassigned) [Compound 148]"
measured_endpoint = "EC50"
reported_result = "> 3000 nM"

[[record]]
compound = "CC1(C)CC[C@H]2CCCNc3cccc(n3)S(=O)(=O)NC(=O)c3ccc(-n4ccc(OCCC(C5CC5)C5CC5)n4)nc3N21 (single isomer, unassigned) [Compound 136]"
measured_endpoint = "EC50"
reported_result = "< 1000 nM"


---

Listed below: EC50 values for each entry.
- Tested on: UniProt P13569
- Condition parameters: enteroid cells incubated with test compound 18-24 hours; acute 10 μM forskolin and 300 nM Compound III
Measured endpoint: EC50

[[record]]
molecule = "C[C@@H]1CC[C@H]2CN(c3nc(N4CCN(CCC(C)(C)C)C4=O)ccc3C(=O)NS(=O)(=O)c3cccc(n3)N1)C(C)(C)C2 (single isomer, unassigned) [Compound 219]"
reported_result = "< 1000 nM"

[[record]]
molecule = "CC1(C)C[C@@H]2CCCNc3cccc(n3)S(=O)(=O)NC(=O)c3ccc(N4CC[C@H](OCCCC5(C(F)(F)F)CC5)C4=O)nc3N1C2 (single isomer, unassigned) [Compound 243]"
reported_result = "< 1000 nM"

[[record]]
molecule = "CC1(C)C[C@H]2CCCCc3cccc(n3)S(=O)(=O)NC(=O)c3ccc(-n4ccc(OCCC5(C(F)(F)F)CC5)n4)nc3N1C2 (single isomer, unassigned) [Compound 86]"
reported_result = "> 3000 nM"

[[record]]
molecule = "CC1(C)CC2CCCn3ccc(n3)S(=O)(=O)NC(=O)c3ccc(-n4ccc(OCCCC5(C(F)(F)F)CC5)n4)nc3N1C2 (racemic) [Compound 155]"
reported_result = "< 1000 nM"

[[record]]
molecule = "CC1(C)C[C@H]2CCCNc3cccc(n3)S(=O)(=O)NC(=O)c3ccc(-n4ccc(OCC5C6(CC6)C56CC6)n4)nc3N1C2 (single isomer, unassigned) [Compound 107]"
reported_result = "< 1000 nM"

